tested system: mGluR2 receptor (metabotropic glutamate receptor 2) (Homo sapiens, UniProt Q14416)
Construct: expressed in transfected cells
Sequence (Q14416 19-872, species assumed): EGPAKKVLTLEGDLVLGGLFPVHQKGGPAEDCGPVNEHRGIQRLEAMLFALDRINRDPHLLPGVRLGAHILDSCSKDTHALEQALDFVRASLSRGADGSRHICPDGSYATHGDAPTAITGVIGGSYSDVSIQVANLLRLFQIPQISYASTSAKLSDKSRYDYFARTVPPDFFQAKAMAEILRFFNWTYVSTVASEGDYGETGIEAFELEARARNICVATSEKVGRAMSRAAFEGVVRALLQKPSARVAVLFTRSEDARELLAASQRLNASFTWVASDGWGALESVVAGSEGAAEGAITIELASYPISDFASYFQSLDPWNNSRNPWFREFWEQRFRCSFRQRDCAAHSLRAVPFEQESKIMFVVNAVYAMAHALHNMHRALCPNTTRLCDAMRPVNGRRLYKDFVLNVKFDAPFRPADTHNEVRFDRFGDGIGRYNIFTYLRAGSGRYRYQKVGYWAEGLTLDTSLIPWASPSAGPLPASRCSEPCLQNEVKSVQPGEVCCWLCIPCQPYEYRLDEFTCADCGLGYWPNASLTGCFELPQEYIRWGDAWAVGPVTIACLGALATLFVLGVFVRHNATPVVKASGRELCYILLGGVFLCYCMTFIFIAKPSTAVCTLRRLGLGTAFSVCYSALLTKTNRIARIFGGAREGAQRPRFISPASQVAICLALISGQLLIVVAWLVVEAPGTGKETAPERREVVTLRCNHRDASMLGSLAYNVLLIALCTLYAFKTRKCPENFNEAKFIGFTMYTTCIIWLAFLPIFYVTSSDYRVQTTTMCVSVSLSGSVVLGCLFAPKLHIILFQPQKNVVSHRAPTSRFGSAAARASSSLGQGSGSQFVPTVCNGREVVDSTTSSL
assay procedure: mGluR2 Potentiator Screen, FLIPR, EC10-EC20 glutamate challenge
Type: cell-based
measurement parameters: read-out: EC50
In this section we review reported EC50 values for a set of molecules.
Response body: numeric value in nM, unit text excluded.

Field: example entries. Status: answers known.
CN1CC2(CCN(Cc3nc4ccccc4n3C)CC2)c2cc(Cl)ccc21 [compound 131]
1760
Cn1c(CN2CCC(c3cccc(C(C)(C)C)c3)CC2)nc2ccccc21 [compound 419]
149
C[C@@H]1CN(Cc2nc3ccccc3n2C)CC[C@@H]1c1ccc(Cl)cc1F (relative stereo) [compound 461]
30.3

May I ask what EC50 has been recorded for Fc1ccccc1C1CCN(Cc2nc3ccccc3n2C2CC2)CC1 [compound 251] ?
1340

====

In this section we review reported EC50 values for a set of compounds.
tested system: mGluR2 receptor (metabotropic glutamate receptor 2) (Homo sapiens, UniProt Q14416)
Construct: expressed in transfected cells
assay procedure: mGluR2 Potentiator Screen, FLIPR, EC10-EC20 glutamate challenge
Format: cell-based
measurement parameters: read-out: EC50
Response body: numeric value in nM, unit text excluded.

Field: example entries. Status: answers known.
Cn1c(CN2CCC(c3ccc(C(F)(F)F)cc3)C(F)C2)nc2cccc(F)c21 (stereo not drawn)
137
COCCn1c(CN2CC[C@H](c3ccccc3OC)[C@H](C)C2)nc2ccccc21 (relative stereo)
2360
CC(O)c1ccccc1C1CCN(Cc2nc3ccccc3n2C)CC1 (stereo not drawn)
361
CCC(=O)N1CC2(CCN(Cc3nc4ccccc4n3C)CC2)c2cc(C)ccc21
926
Cn1c(CN2CCC3(CC2)COc2ccccc23)nc2ccccc21
1170
CCCN1CC2(CCN(Cc3nc4ccccc4n3C)CC2)c2cc(C)cc(C)c21
2690

May I ask what EC50 has been recorded for Cn1c(CN2CCC(c3ccc(C(F)(F)F)cc3F)CC2)nc2c(F)cccc21 ?
40.2

Let us now turn to COc1ccccc1C1(OC)CCN(Cc2nc3ccccc3n2CCF)CC1C (stereo not drawn)
10400

Let us now turn to CCN1CC2(CCN(Cc3nc4ccccc4n3C)CC2)c2cc(C)ccc21
3410

Let us now turn to Cn1c(CN2CCC3(CC2)CN(CC(C)(C)C)c2ccccc23)nc2ccccc21
10300

====

tested system: mGluR2 receptor (metabotropic glutamate receptor 2) (Homo sapiens, UniProt Q14416)
Construct: expressed in transfected cells
assay procedure: mGluR2 Potentiator Screen, FLIPR, EC10-EC20 glutamate challenge
Type: cell-based
measurement parameters: read-out: EC50
In this section we review reported EC50 values for a set of compounds.
Response body: numeric value in µM, unit text excluded.

May I ask what EC50 has been recorded for Cc1ccc(C2CCN(Cc3nc4ccccc4n3C)CC2)cc1C ?
0.308

Let us now turn to COc1cc(C(F)(F)F)ccc1[C@H]1CCN(Cc2nc3ccccc3n2C)C[C@H]1C (relative stereo)
0.128

Let us now turn to COc1ccccc1C1CCN(Cc2nc3cc(C#N)ccc3n2C)CC1
0.0908

Let us now turn to CCC(=O)N1CC2(CCN(Cc3nc4ccccc4n3C)CC2)c2cc(Cl)ccc21
1.06

Let us now turn to COc1cc(F)ccc1C1CCN(Cc2nc3cccc(F)c3n2C)CC1
0.167

Let us now turn to CC(=O)N1CC2(CCN(Cc3nc4ccccc4n3C)CC2)c2cc(F)ccc21
4.79

====

In this section we review reported pEC50 values for a set of compounds.
tested system: mGluR2 receptor (metabotropic glutamate receptor 2) (Homo sapiens, UniProt Q14416)
Construct: expressed in transfected cells
assay procedure: mGluR2 Potentiator Screen, FLIPR, EC10-EC20 glutamate challenge
Type: cell-based
measurement parameters: read-out: EC50
Would you please state pEC50, meaning minus log10 of the concentration in mol/L, as a bare number?

Cn1c(CN2CCC(c3ccc(Cl)c(F)c3)CC2)nc2ccccc21
7.10
Cn1c(CN2CCC(c3ccc(F)c(Cl)c3)CC2)nc2cc(F)ccc21
7.34
Cc1ccc2c(c1)C1(CCN(Cc3nc4ccccc4n3C)CC1)CN2CC1CC1
5.52

Let's switch to this compound now.
May I ask what pEC50 has been recorded for C#CCOc1ccc(Cl)cc1C1CCN(Cc2nc3ccccc3n2C2CC2)CC1 ?
6.59

====

tested system: mGluR2 receptor (metabotropic glutamate receptor 2) (Homo sapiens)
Construct: expressed in transfected cells
assay procedure: mGluR2 Potentiator Screen, FLIPR, EC10-EC20 glutamate challenge
Format: cell-based
measurement parameters: read-out: EC50
measured attribute: pEC50
Would you please state pEC50, meaning minus log10 of the concentration in mol/L, as a bare number?

Field: example entries. Status: answers known.
CC(=O)N1CC2(CCN(Cc3nc4ccccc4n3C)CC2)c2cc(Cl)ccc21
5.61
C[C@@H]1CN(Cc2nc3ccccc3n2C)CC[C@@H]1c1ccc(F)c(F)c1 (racemic) [Entry 462]
6.62

May I ask what pEC50 has been recorded for Cc1cccc2nc(CN3CCC(c4ccccc4F)CC3)n(C)c12 ?
7.37

Let us now turn to Cn1c(CN2CCC(c3ccccc3F)CC2)nc2cc(CO)ccc21
6.77

Let us now turn to COCn1c(CN2CCC(c3ccc(C(F)(F)F)cc3)CC2)nc2ccccc21
5.72

Let us now turn to C[C@@H]1CN(Cc2nc3ccccc3n2C)CC[C@@H]1c1ccc(C(F)(F)F)cc1C(F)(F)F (relative stereo)
6.79

Let us now turn to COc1cc(C(F)(F)F)ccc1C1CCN(Cc2nc3cc(C#N)ccc3n2C)CC1
7.28

Let us now turn to Cn1c(CN2CCC(c3cccc(C(F)(F)F)c3)CC2)nc2cc(F)ccc21
6.61

====

tested system: mGluR2 receptor (metabotropic glutamate receptor 2) (Homo sapiens, UniProt Q14416)
Construct: expressed in transfected cells
assay procedure: mGluR2 Potentiator Screen, FLIPR, EC10-EC20 glutamate challenge
Type: cell-based
measurement parameters: read-out: EC50
measured attribute: EC50

Field: example entries. Status: answers known.
Cc1ccc2c(c1)C1(CCN(Cc3nc4ccccc4n3C)CC1)CN2CCC(C)C [compound 120]
2.7 µM
Cn1c(CN2CCC(c3ccccc3OCCc3ccccn3)CC2)nc2ccccc21 [compound 97]
> 9.64 µM
Cn1c(CN2CCC(c3ccccc3OC3CCOCC3)CC2)nc2ccccc21 [compound 99]
2.12 µM
COc1cc(F)ccc1C1CCN(Cc2nc3cc(F)ccc3n2C)CC1 [compound 408]
0.0672 µM
Cn1c(CN2CCC(c3ccc(F)c(Cl)c3)CC2)nc2cccc(F)c21 [compound 444]
0.131 µM
C[C@@H]1CN(c2cccc(C3CCN(Cc4nc5ccccc5n4C)CC3)c2)C[C@H](C)O1 [compound 83]
0.82 µM
COc1cc(F)ccc1[C@H]1CCN(Cc2nc3ccccc3n2C)C[C@H]1C (relative stereo) [compound 464]
0.125 µM
COc1ccccc1[C@H]1CCN(Cc2nc3ccccc3n2C2CC2)C[C@H]1C (relative stereo) [compound 338]
1.45 µM

Let's switch to this compound now.
May I ask what EC50 has been recorded for FCn1c(CN2CCC(c3ccccc3F)CC2)nc2ccccc21 [compound 252] ?
0.225 µM

====

tested system: mGluR2 receptor (metabotropic glutamate receptor 2) (Homo sapiens)
Construct: expressed in transfected cells
assay procedure: mGluR2 Potentiator Screen, FLIPR, EC10-EC20 glutamate challenge
Type: cell-based
measurement parameters: read-out: EC50
Procedure: Procedure for mGluR2 Potentiator Screen NLB Methods EC10-EC20 Challenge Cell Culture and Plating: Cells used for this screen are HEK cells stably transfected with the mGluR2 receptor (metabotropic glutamate receptor 2) and the Gα15 G protein. […] Results are analyzed by dividing the peak fluorescent value of the FLIPR response by the […] to achieve a ratio response. The ratios are then analyzed by curve fitting programs. […]
measured attribute: EC50 (nM)
Response body: numeric value in nM, unit text excluded.

Field: example entries. Status: answers known.
Cn1c(CN2CCC3(CC2)CN(C(=O)C2CCC2)c2ccccc23)nc2ccccc21
2220
CC(C)CN1CC2(CCN(Cc3nc4ccccc4n3C)CC2)c2ccccc21
2580
C#CCOc1ccc(Cl)cc1C1CCN(Cc2nc3ccccc3n2C)CC1
78.1
OCCn1c(CN2CCC(c3ccccc3F)CC2)nc2ccccc21
1740
COc1ccccc1C1CCN(Cc2nc3ccccc3n2C)CC1C (stereo not drawn)
143

May I ask what EC50 has been recorded for COC(=O)CCCCC(=O)N1CC2(CCN(Cc3nc4ccccc4n3C)CC2)c2cc(C)ccc21 ?
4890

Let us now turn to CCCCOc1ccccc1C1CCN(Cc2nc3ccccc3n2C)CC1
1040

Let us now turn to CCCCN1CC2(CCN(Cc3nc4ccccc4n3C)CC2)c2ccccc21
1340

Let us now turn to CCCC(=O)N1CC2(CCN(Cc3nc4ccccc4n3C)CC2)c2ccccc21
1410
